- Test system: Leishmania donovani
- Test details: Leishmania intramacrophage assay
- Assay type: functional, organism-based
- Set-up: scale not given: in the data most compounds retested in dose-response had high values
- Test settings: 30.3 µM; […]
Among all 69,000 compounds or so, about 1,000 (1.4%) showed an effect of 50% or more. This excerpt belongs to a sample that is enriched for strong results.
# label = YES if Percent Effect >= 30% else NO

O=C1CCC(c2ccccc2)=NN1CN1CCCCCC1; YES
CNC(=O)[C@H]1CC[C@@H]2[C@@H](CCN2CCOCc2ccccc2)O1.O=C(O)C(F)(F)F; YES
O=C(O)C(F)(F)F.c1csc(CN2CCCn3cnc(COCC4CC4)c3C2)n1; NO
CCOCC1CN(C(=O)c2cscn2)Cc2cn(C)nc21.O=C(O)C(F)(F)F (configuration not stated); NO
O=C1CCC(c2ccc(Cl)cc2)=NN1CN1CCSCC1; YES

[Q] State whether the measured Percent Effect reaches 30%, counting equality as reaching it, for Cc1ccc(CN2CCCn3nnc(COCCN(C)C)c3C2)s1.O=C(O)C(F)(F)F.O=C(O)C(F)(F)F
[A] YES

[Q] How about this molecule: c1ccc(C2CCCN(Cc3cc4n(n3)CCNC4)CC2)cc1 (configuration not stated)
[A] YES

[Q] How about this molecule: CCCc1noc(CN2CCOCC2C)n1 (configuration not stated)
[A] NO

[Q] How about this molecule: Cc1ccc(CN2CCc3c(COCC4CC4)nn(C)c3C2)s1.O=C(O)C(F)(F)F
[A] NO

[Q] How about this molecule: O=C(O)C(F)(F)F.c1cnc(NCc2nnn3c2CN(Cc2ccco2)CCC3)nc1
[A] NO

[Q] How about this molecule: CC(C)N(C)S(=O)(=O)N(Cc1cccs1)CC1CCCO1 (configuration not stated)
[A] NO

[Q] How about this molecule: Cc1cc(C)n(C2CCN(S(=O)(=O)N3CCOCC3)CC2)n1
[A] NO

[Q] How about this molecule: CC(=O)N1CCc2c(nc(N(C)C)nc2NCCCn2ccnc2)C1
[A] NO

[Q] How about this molecule: O=C(CN1CCOc2ccccc2C1)NCc1cc2n(n1)CCNC2
[A] NO

[Q] How about this molecule: O=C(O)C(F)(F)F.c1ccc(CN2CCCn3nnc(CNc4ncccn4)c3C2)nc1
[A] YES

[Q] How about this molecule: N#Cc1cccc(C(=O)N2C[C@H]3CC[C@@H]2CN(C(=O)C2CCC2)C3)c1
[A] NO

[Q] How about this molecule: CCOc1ccc2nc(NC(=O)c3c(C(=O)O)cnn3C)sc2c1
[A] NO

[Q] How about this molecule: CC(C)(C)CC(=O)NS(=O)(=O)c1ccc(F)cc1C(F)(F)F
[A] NO

[Q] How about this molecule: CCCOc1cccc(-c2nc3c([nH]2)CCNC3)c1
[A] NO

[Q] How about this molecule: N#CC1(C(=O)N2CCOC(c3ccc(F)cc3)C2)CCCCC1 (configuration not stated)
[A] YES

[Q] How about this molecule: Cc1nn(C)c(N2CCOCC2)c1CNC1CCS(=O)(=O)C1 (configuration not stated)
[A] NO

* * *

- Tested on: Leishmania donovani
- Test details: Leishmania intramacrophage assay
- Type: functional, organism-based
- Set-up: scale not given: in the data most compounds retested in dose-response had high values
- Test settings: 30.3 µM; […]
The campaign covered roughly 69,000 compounds. About 1,000 (1.4%) showed an effect of 50% or more. Only a selection was taken, and strong results are over-represented in it overall.
Each entry below lists one item and its recorded Percent Effect value.
Answer shape: numeric part, then the unit.

// solved cases for Percent Effect follow
O=C(O)C(F)(F)F.O=C(O)C(F)(F)F.O=C(O)C(F)(F)F.c1cncc(COCc2cncc3c2CCN(Cc2ccoc2)C3)c1; 3.293%
O=c1[nH]cnc2c1CCN(S(=O)(=O)c1ccc(OC(F)(F)F)cc1)C2; 24.26%
CC(C)=CCN1CCC(c2nnc(CN3CCN(C)CC3)n2C)CC1; 50.84%
CCCc1noc(C2CC(=O)N(C(C)(C)C)C2)n1 (stereo unspecified); 13.52%

[Q] Can you share its Percent Effect? I mean this molecule: CN1CCN([C@@H]2CCN(Cc3ccc4cc(F)ccc4n3)C[C@H]2O)CC1
[A] 33.38%
